I'd be grateful if you could share measured pEC50 for these entries.
tested on: phospho-akt (Thr308) in PC-3 cells; experiment: Inhibition of phospho-akt (Thr308) in PC-3 cells, MSD phospho-akt 308 ELISA kit; type: cell-based; settings: Homo sapiens; inhibition of P308 Akt in PC-3 cells using MSD, 2 hours, no serum; read-out: EC50
pEC50: −log10 of the molar value.

Inquiry: # query: pEC50 of entry C[C@H](NC(=O)c1nc(C#N)cnc1NCC#Cc1ccc2nc(N)ncc2c1)c1ccc(F)c(F)c1 [Example 258]
Reply text: > 6.00

Inquiry: And for COCCCNc1cnc(-c2ccc(CNc3ncc(C#N)cc3C(=O)N[C@@H](C)c3ccc(F)cc3)cc2)cn1 [Example 228] ?
Reply text: < 5.00

Inquiry: Next record, please: COCCn1cc(-c2ccc(CNc3ncc(C(F)(F)F)cc3C(=O)Nc3ccc(F)cc3)cc2)c2c(N)ncnc21 [Example 431]
Reply text: 5.00 to 6.00

Inquiry: Field entry: C[C@H](NC(=O)c1nc(C#N)cnc1NCc1ccc(-c2cnc3[nH]ncc3c2)cc1)c1ccc(F)cc1 [Example 389]
Reply text: > 6.00

Inquiry: Next up: Nc1n[nH]c2ncc(-c3ccc(CNc4ncc(C(F)(F)F)cc4C(=O)N[C@@H](CO)c4ccc(F)cc4)cc3)cc12 [Example 308]
Reply text: > 6.00

Inquiry: Param item: Nc1ncc(-c2ccc(CNc3ncc(C(F)(F)F)cc3C(=O)Nc3ccc(F)cc3)cc2)nc1-c1cccc(O)c1 [Example 236]
Reply text: 5.00 to 6.00

Inquiry: Again, but for COc1cc(-c2ccc(CNc3ncc(C#N)cc3C(=O)N[C@@H](C)c3ccc(F)cc3)cc2)cnc1N [Example 133]
Reply text: > 6.00

* * *

molecular target: PDK1 (Homo sapiens (Human)); assay: PDK1 kinase assay (coupled PDK1/AKT/FAM-crosstide assay, IMAP fluorescence polarization); format: biochemical; conditions: inhibition of PDK1 in vitro
Sequence (O15530 51-359): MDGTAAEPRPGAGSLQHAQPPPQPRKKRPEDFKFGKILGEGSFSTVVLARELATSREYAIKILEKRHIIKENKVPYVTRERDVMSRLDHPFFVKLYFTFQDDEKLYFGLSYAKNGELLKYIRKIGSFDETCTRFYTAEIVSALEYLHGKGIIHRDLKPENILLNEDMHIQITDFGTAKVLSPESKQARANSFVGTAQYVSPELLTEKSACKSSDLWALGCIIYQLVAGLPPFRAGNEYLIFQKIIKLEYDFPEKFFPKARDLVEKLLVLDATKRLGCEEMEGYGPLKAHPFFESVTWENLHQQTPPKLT
measured-metric: IC50

Inquiry: Hello, I am looking for reported IC50 with PDK1 (Homo sapiens (Human)) for C[C@H](NC(=O)c1nc(C#N)cnc1NCc1ccc(-c2cn(CCN)c3ncnc(N)c23)cc1)c1ccc(F)c(F)c1 . Could you help?
Reply text: < 0.1 µM

Inquiry: Do the same for C[C@H](NC(=O)c1cc(C#N)cnc1NCc1ccc(-c2ccc(N)nc2)c(F)c1)c1ccc(F)cc1 please
Reply text: 0.1 to 1 µM

Inquiry: # iterate: Nc1n[nH]c2ncc(-c3ccc(CNc4ncc(C(F)(F)F)cc4C(=O)NC4CCC4)cc3)cc12
Reply text: < 0.1 µM

Inquiry: How about NC(=O)c1cc(CNc2ncccc2C(=O)NCc2ccc(F)c(F)c2)ccc1-n1ccnc1 ?
Reply text: > 5 µM

Inquiry: Subsequent entry: CC(N)CCc1nc(-c2ccc(CNc3ncc(C#N)nc3C(=O)N[C@@H](C)c3ccc(F)c(F)c3)cc2)cnc1N (stereo partly drawn)
Reply text: < 0.1 µM

Inquiry: Also Nc1n[nH]c2ncc(-c3ccc(CNc4ncc(C(F)(F)F)cc4C(=O)N[C@H](CO)c4ccc(F)cc4)cc3)cc12 , if possible.
Reply text: 0.1 to 1 µM

* * *

target: PDK1 (Homo sapiens (Human)); test: PDK1 kinase assay (coupled PDK1/AKT/FAM-crosstide assay, IMAP fluorescence polarization); assay type: biochemical; conditions: inhibition of phospo-PDK1 in vitro
Where a name gives a salt, the structure may show the parent alone.
Give IC50 for every item shown.

Inquiry: Please look up its IC50: Nc1cnc(NCc2ccc(-c3ccc4ncnc(N)c4c3)s2)c(C(=O)NCc2ccc(F)c(F)c2)c1
Reply text: < 100 nM

Inquiry: Lookup CC(C)[C@H](NC(=O)c1cccnc1NCc1ccc(-c2ccc3ncnc(N)c3c2)s1)c1ccc(F)cc1 [Example 3.45, (TFA salt)]
Reply text: 100 to 1000 nM

Inquiry: Now consider CNC(=O)c1cccnc1NCc1cccc(-c2c[nH]c3ncccc23)c1 and answer again.
Reply text: > 5000 nM
